assay: M. tuberculosis H37Rv growth inhibitors, H37Rv strain (AID 1626); settings: hits give high values, concentration not given here;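 note: bacteria incubated seven days before Alamar blue readout; 0% = bacteria only wells and 100% = bacteria with antibiotic wells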
Among all 220,000 compounds or so, about 2,000 (0.91%) were called active. Not shown: some 2% with an inconclusive outcome. The list is a sample of the results. Entries with a potency or affinity are not part of this list.
In this section we review reported inhibition values for a set of compounds.

[
  {
    "QUERY SMILES": "CN1CCN(c2ccc(C(=O)c3ccc(F)cc3)cc2)CC1",
    "RESULT UNITS": "%",
    "inhibition": 1.19
  },
  {
    "QUERY SMILES": "CCCc1cc(C(=O)Nc2cc(Br)ccc2O)no1",
    "RESULT UNITS": "%",
    "inhibition": 78.3
  },
  {
    "QUERY SMILES": "Cc1ccc2nc(-c3ccc(NS(C)(=O)=O)cc3)cc(-c3ccccc3)c2c1",
    "RESULT UNITS": "%",
    "inhibition": 64.5
  },
  {
    "QUERY SMILES": "Cc1ccc(-n2cnnn2)cc1Cl",
    "RESULT UNITS": "%",
    "inhibition": -4.47
  },
  {
    "QUERY SMILES": "Cc1ccc(C(=O)c2cn(-c3ccc(F)c(Cl)c3)nn2)cc1",
    "RESULT UNITS": "%",
    "inhibition": 0.59
  },
  {
    "QUERY SMILES": "O=C(c1cn(-c2ccc(Cl)c(Cl)c2)nn1)C1CC1",
    "RESULT UNITS": "%",
    "inhibition": 12.8
  },
  {
    "QUERY SMILES": "CC(=O)Nc1cccc(NC(=O)c2cc(C)on2)c1",
    "RESULT UNITS": "%",
    "inhibition": -10.6
  },
  {
    "QUERY SMILES": "O=C(Nc1c(F)cc(F)cc1Br)c1cc(-c2ccc(O)cc2)on1",
    "RESULT UNITS": "%",
    "inhibition": 73.7
  },
  {
    "QUERY SMILES": "CCCn1c(=O)c(C(=O)NCc2ccc(OC)c(OC)c2)c(O)c2ccccc21",
    "RESULT UNITS": "%",
    "inhibition": -0.33
  },
  {
    "QUERY SMILES": "COC(=O)c1nc(N)sc1-c1ccc(OC)cc1",
    "RESULT UNITS": "%",
    "inhibition": -1.47
  },
  {
    "QUERY SMILES": "CCCc1cc(C(=O)Nc2ccc(C(C)=O)cc2)no1",
    "RESULT UNITS": "%",
    "inhibition": 79.7
  },
  {
    "QUERY SMILES": "O=C(NCc1c(F)cccc1F)c1cc(COc2c(F)cccc2F)on1",
    "RESULT UNITS": "%",
    "inhibition": 4.13
  }
]
